Recorded measurements of CPM NADH isotoon, one per entry
system: aberrant membrane NADH oxidase; type: cell-based
Record the value in CPM, omitting the unit from your answer.

>>> print(df.to_string())
                           structure_string  scale_unit  value_reported
0                              [Cl][Ni][Cl]         CPM             913
1      C[CH2][Hg][S]c1ccccc1C(=O)[O-].[Na+]         CPM            2380
2  O=[N+]([O-])[O-].O=[N+]([O-])[O-].[Pb+2]         CPM            1402

Q: Consider the compound shown here: "[Cl][Cd][Cl]" What is its recorded CPM NADH isotoon?
Ans: 114

###

tested on: aberrant membrane NADH oxidase; assay type: cell-based
Property: CPM NADH hypotoon (CPM)
Record the value in CPM, omitting the unit from your answer.

In [3]: df
Out[3]:
                           structure_string           property  value_reported
0      C[CH2][Hg][S]c1ccccc1C(=O)[O-].[Na+]  CPM NADH hypotoon            3338
1  O=[N+]([O-])[O-].O=[N+]([O-])[O-].[Pb+2]  CPM NADH hypotoon             817
2                              [Cl][Ni][Cl]  CPM NADH hypotoon             860

Q: Query the reported CPM NADH hypotoon for aberrant membrane NADH oxidase; item: "[Cl][Cd][Cl]"
Ans: 376

###

test system: aberrant membrane NADH oxidase; format: cell-based
Recorded measurements of CPM iso/hypo, one per entry
# respond with the number and nothing more

Below: 3 compounds and their reported CPM iso/hypo.
                           structure_string  value_reported
0      C[CH2][Hg][S]c1ccccc1C(=O)[O-].[Na+]            0.71
1                              [Cl][Cd][Cl]            0.30
2  O=[N+]([O-])[O-].O=[N+]([O-])[O-].[Pb+2]            1.71

Query compound follows.
Q: Consider the compound shown here: "[Cl][Ni][Cl]" What is its recorded CPM iso/hypo?
Ans: 1.06
